average injury rating, V8 Growth Stage, 4x Quizalofop reference
tested on: F1 hybrid maize plants; experiment: efficacy field trial for quizalofop-P tolerance and clethodim sensitivity; type: in vivo; settings: scale 0 to 100; 0.32 lb ai/acre at VE-V2, V4, V8; with CTP unless label says no CTP
quantity-name: average injury rating, V8 Growth Stage, 4x Quizalofop

[[record]]
molecule = "MON-HT2: engineered oxygenase protein, amino acid sequence SEQ ID NO:18 (protein) MHAALTPLTNKYRFIDVQPLTGVLGAEITGVDLREPLDDSTWNEILDAFHTYQVIYFPGQAITNEQHIAFSRRFGPVDPVPLLKSIEGYPEVQMIRREANESSRVIGDDWHSDSTFLDAPPAAVVMRAIEVPEYGGDTGFLSMYSAWETLSPTMQATIEGLNVVHSATKVFGSLYQATNWRFSNTSVKVMDVDAGDRETVHPLVVTHPVTGRRALYCNQVYCQKIQGMTDAESKSLLQFLYEHATKFDFTCRVRWKKDQVLVWDNLCTMHRAAPDYAGKFRYLTRTTVAGDKPSR"
numeric_readout = 2.5

[[record]]
molecule = "MON-HT5: engineered oxygenase protein, amino acid sequence SEQ ID NO:28 (protein) MHAALTPLTNKYRFIDVQPLTGVLGAEITGVDLREPLDDSTWNEILDAFHTYQVIYFPGQAITNEQHIAFSRRFGPVDPVPLLKSIEGYPEVQMIRREANESGRVIGDDWHTDSTFLDAPPAAVVMRAIEVPEYGGDTGFLSMYSAWETLSPTMQATIEGLNVVHSATKVFGSLYQATNWRFSNTSVKVMDVDAGDRETVHPLVVTHPVTGRRALYCNQVYCQKIQGMTDAESKSLLQFLYEHATKFDFTCRVRWKKDQVLVWDNLCTMHRAVPDYAGKFRYLTRTTVAGDKPSR"
numeric_readout = 2.5

[[record]]
molecule = "MON-HT1: engineered oxygenase protein, amino acid sequence SEQ ID NO:14 (protein) MHAALTPLTNKYRFIDVQPLTGVLGAEITGVDLREPLDDSTWNEILDAFHTYQVIYFPGQAITNEQHIAFSRRFGPVDPVPILKSIEGYPEVQMIRREANESSRFIGDDWHTDSTFLDAPPAAVVMRAIEVPEYGGDTGFLSMYSAWETLSPTMQATIEGLNVVHSATKVFGSLYQATNWRFSNTSVKVMDVDAGDRETVHPLVVTHPVTGRRALYCNQVYCQKIQGMTDAESKSLLQFLYEHATKFDFTCRVRWKKDQVLVWDNLCTMHRAVPDYAGKFRYLTRTTVAGDKPSR"
numeric_readout = 2.0

[[record]]
molecule = "MON-HT4: engineered oxygenase protein, amino acid sequence SEQ ID NO:25 (protein) MHAALTPLTNKYRFIDVQPLTGVLGAEITGVDLREPLDDSTWNEILDAFHTYQVIYFPGQAITNEQHIAFSRRFGPVDPVPLLKSIEGYPEVQMIRREANESGRVIGDDWHTDSTFLDAPPAAVVMYAREVPPYGGDTGFLSMYTAWETLSPTMQATIEGLNVVHSATRVFGSLYQAQNRRYSNTSVKVMDVDAGDRETVHPLVVSHPVTGRRALYCNQVYCQRIEGMTDAESKSLLQFLYEHATKFDFTCRVRWKKDQVLVWDNLCTMHRAVPDYAGKFRYLTRTTVAGDKPSR"
numeric_readout = 3.3

[[record]]
molecule = "MON-HT3: engineered oxygenase protein, amino acid sequence SEQ ID NO:22 (protein) MHAALSPLSQRFERIAVQPLTGVLGAEITGVDLREPLDDSTWNEILDAFHTYQVIYFPGQAITNEQHIAFSRRFGPVDPVPLLKSIEGYPEVQMIRREANESGRVIGDDWHTDSTFLDAPPAAVVMYAKEVPPYGGDTLFASMYTAWETLSPTMQATIEGLNVVHSATRVFGSLYQAQNRRFSNTSVKVMDVDAGDRETVHPLVVTHPETGRKGLYVNQVYCQRIEGMSEKESEPLLSFLFAHATKPEFTCRVRWQEGQVLVWDNLCTQHFAVPDYAGKFRYLTRTTVGGVRPAR"
numeric_readout = 2.5

[[record]]
molecule = "MON-HT6: engineered oxygenase protein, amino acid sequence SEQ ID NO:31 (protein) MHAALSPLSQKYRFIDVQPLTGVLGAEITGVTLREPLDDNTWNEILDAFHTYQVIYFPGQAITNEQHIAFSRRFGPVDPVPLLKSIEGYPEVQMIRREANESGRVIGDDWHTDSTFLDAPPAAVVMYAREVPPYGGDTGFLSMYSAWDTLSDTMKATIEGLNVVHSATRVFGSLYQAQNRRFSNTSVKVMDVDAGDRETVHPLVVSHPVTGRRALYCNQVYCQRIEGMTDAESKPLLQFLYEHATRFDFTCRVRWKKDQVLVWDNLCTMHRAVPDYAGKFRYLTRTTVAGDKPSR"
numeric_readout = 1.3

[[record]]
molecule = "MON-HT7: engineered oxygenase protein, amino acid sequence SEQ ID NO:34 (protein) MHAALTPLTNKYRFIDVQPLTGVLGAEITGVDLREPLDDSTWNEILDAFHTYQVIYFPGQAITNEQHIAFSRRFGPVDPVPLLKSIEGYPEVQMIRREANESGRVIGDDWHADSTFLDAPPAAVVMRAIEVPEYGGDTGFLSMYSAWETLSPTMQATIEGLNVVHSATKVFGSLYQATNWRFSNTSVKVMDVDAGDRETVHPLVVTHPVTGRRALYCNQVYCQKIQGMTDAESKSLLQFLYEHATKFDFTCRVRWKKDQVLVWDNLCTMHRSVPDYAGKFRYLTRTTVAGDKPSR"
numeric_readout = 1.5

